- assay_notes: Hygroscopicity
- Type: physicochemical
- condition_summary: sodium salt
Counter-ions that a name gives are not always drawn.
observable: hygroscopicity

• Cc1ccc2c(=O)c3cccc(CC(=O)O)c3oc2c1C [form L, DMXAA sodium salt] = hygroscopic
• Cc1ccc2c(=O)c3cccc(CC(=O)O)c3oc2c1C [form F, DMXAA sodium salt] = hygroscopic
• Cc1ccc2c(=O)c3cccc(CC(=O)O)c3oc2c1C [form E, DMXAA sodium salt] = hygroscopic
